experiment-notes: Cell Viability - Renal Proximal Tubule (AID 545);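 note: cells exposed to compound for 40 hours; 0% = DMSO only and -100% = 100 µM tamoxifen; nearly all actives have a fitted effect of over 40% in size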
details: renal proximal tubule cells viability, primary cells of rat origin; at 91.7 µM (top of the series)
From the text: NIH Chemical Genomics Center [NCGC] NIH Molecular Libraries Screening Centers Network [MLSCN] National Institutes of Environmental Health Sciences [NIEHS] National Toxicology Program [NTP] We have developed a 1536-well cell-based assay for quantitative high throughput screening (qHTS) against a number of cell lines to determine in vitro cytotoxicity of small molecules. […] 8. Detection; Luminescence; Viewlux plate reader […]
Inconclusive results are not listed.
Could you please report measured activity change, negative = cytotoxicity for the items listed next?
Please respond with the number in % and leave the unit unwritten.

response.value for C[C@H](CCC(=O)O)[C@H]1CC[C@H]2[C@@H]3CC[C@@H]4C[C@H](O)CC[C@]4(C)[C@H]3CC[C@]12C (field: activity change, negative = cytotoxicity) = -4.96

response.value for C1OCOCO1 (field: activity change, negative = cytotoxicity) = -10.6

response.value for CCO[Si](CCCN)(OCC)OCC (field: activity change, negative = cytotoxicity) = -12

response.value for O[C@@H]([C@H](O)[C@@H](O)CBr)[C@@H](O)CBr (field: activity change, negative = cytotoxicity) = 2.79

response.value for COc1ccc(/C=C/c2cc(OC)cc(=O)o2)cc1 (field: activity change, negative = cytotoxicity) = -20.5

response.value for C=CC(=C)CCC=C(C)C (field: activity change, negative = cytotoxicity) = 6.82

response.value for Cc1c(N=C=O)cccc1N=C=O (field: activity change, negative = cytotoxicity) = 6.1

response.value for ClCCCl (field: activity change, negative = cytotoxicity) = -0.883

response.value for c1ccc2c(c1)c1cccc3ccc4cccc2c4c31 (field: activity change, negative = cytotoxicity) = -12.3

response.value for O=C1CCc2ccccc2O1 (field: activity change, negative = cytotoxicity) = -10.3

response.value for COc1ccc2nc(N)sc2c1 (field: activity change, negative = cytotoxicity) = -14.7

response.value for C=CCc1ccc(OC)c(OC)c1 (field: activity change, negative = cytotoxicity) = -5.61

response.value for O=C1c2ccccc2C(=O)C1c1ccc2ccccc2n1 (field: activity change, negative = cytotoxicity) = -13.3

response.value for O=C(O)c1ccccc1 (field: activity change, negative = cytotoxicity) = -3.81

----------
system: Rap guanine nucleotide exchange factor 3 (Homo sapiens) (UniProt O95398)
Sequence (O95398 whole entry, looked up): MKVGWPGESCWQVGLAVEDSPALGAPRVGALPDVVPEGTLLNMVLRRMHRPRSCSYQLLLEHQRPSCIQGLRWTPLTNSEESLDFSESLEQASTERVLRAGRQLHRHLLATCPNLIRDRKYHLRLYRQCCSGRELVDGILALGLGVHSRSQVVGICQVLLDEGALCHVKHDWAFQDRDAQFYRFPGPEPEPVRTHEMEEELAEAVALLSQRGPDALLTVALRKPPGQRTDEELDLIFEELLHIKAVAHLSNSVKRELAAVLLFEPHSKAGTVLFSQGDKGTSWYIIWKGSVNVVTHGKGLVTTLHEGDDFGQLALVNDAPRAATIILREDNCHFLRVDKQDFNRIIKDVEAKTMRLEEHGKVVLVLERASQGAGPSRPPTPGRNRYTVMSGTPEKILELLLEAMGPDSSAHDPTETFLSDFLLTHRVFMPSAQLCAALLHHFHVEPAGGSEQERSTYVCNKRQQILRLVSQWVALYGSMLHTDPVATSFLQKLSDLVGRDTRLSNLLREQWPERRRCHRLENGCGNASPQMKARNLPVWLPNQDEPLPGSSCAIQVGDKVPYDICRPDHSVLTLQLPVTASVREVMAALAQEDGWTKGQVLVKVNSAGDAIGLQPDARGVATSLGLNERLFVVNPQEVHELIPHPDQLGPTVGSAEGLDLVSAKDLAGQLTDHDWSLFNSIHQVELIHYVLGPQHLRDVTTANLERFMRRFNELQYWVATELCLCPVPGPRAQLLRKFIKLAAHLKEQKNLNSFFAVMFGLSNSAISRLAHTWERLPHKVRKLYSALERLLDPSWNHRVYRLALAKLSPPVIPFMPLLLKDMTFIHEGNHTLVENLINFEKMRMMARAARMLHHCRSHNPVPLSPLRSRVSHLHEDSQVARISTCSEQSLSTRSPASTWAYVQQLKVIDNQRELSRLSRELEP
experiment-notes: Counterscreen qHTS for antagonist of cAMP-regulated guanine nucleotide exchange factor 3 (EPAC1) (AID 1645888);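 note: fluorescence loss as bound BODIPY-GDP is released from Rap1B; % of control where 0% means no effect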
details: Rap1B-BODIPY-GDP nucleotide exchange, fluorescence; series mostly up to 154 µM
Records with an inconclusive call do not appear. Activity calls are given as the source filed them. Calls follow the shape of the dose curve; as a rule, active = well fitted inhibition curve with a large enough effect; inconclusive = small, poorly fitted or top-dose-only effect; inactive = no such curve, though single readings can be large or run the other way.
parameter-measured: activity change, negative = inhibition

Guide cases for activity change, negative = inhibition, answers given:
CC1(Cc2ccc(OC(F)(F)F)cc2)C(=O)Nc2ccc(OC(F)(F)F)cc21 (stereo not given)
-17.3% [at 30.8 µM] (inactive)
COc1cc(/C=C2\SC(=S)N(NC(=O)c3ccc(O)c(OC)c3)C2=O)ccc1O
inactive
C/C(=N\NC(=O)c1cc(O)ccc1O)c1cccc(NC(=O)c2ccc(Cl)cc2)c1
inactive
CCc1ccc(N=Nc2ccc(O)c3[nH]cnc23)cc1
inactive

Alright, here's another compound for you.
response.value for CCC(CC)C(=O)Nc1nc(-c2ccc3c(c2)CCN3C(=O)C2CC2)c(C)s1 (field: activity change, negative = inhibition) = -24% [at 30.8 µM] (inactive)

----------
experiment-notes: Cell Viability - LYMP2-009 (AID 968);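 note: cells exposed to compound for 24 h at 37 °C; nearly all actives have a fitted effect of over 55% in size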
details: LYMP2-009 lymphoblastoid cell viability; series mostly up to 92.2 µM
Inconclusive results are not listed. Activity calls are given as the source filed them. The call rests on the fitted dose curve; in most records, active means well fitted cell-killing curve with a large enough effect; inconclusive means small, poorly fitted or top-dose-only effect; inactive means flat fitted curve, though single readings scatter.
Field 'call' accepts 1 for active, -1 for inactive

Data request: Each molecule tested received a call. Report the one for C=Cc1ccccc1Cl .
Data returned: -1

Data request: Each molecule tested received a call. Report the one for CCCCC(CC)CN (stereo not drawn) .
Data returned: -1

Data request: Each molecule tested received a call. Report the one for O=C(O)c1ccc(O)cc1O .
Data returned: -1

Data request: Each molecule tested received a call. Report the one for Cc1ccc([N+](=O)[O-])cc1N .
Data returned: -1

Data request: Each molecule tested received a call. Report the one for CC12CCC(CC1=O)C2(C)C (stereo not drawn) .
Data returned: -1

Data request: Each molecule tested received a call. Report the one for C1OCOCO1 .
Data returned: -1

Data request: Each molecule tested received a call. Report the one for CCCN(CCC)C(=O)SCC .
Data returned: -1

Data request: Each molecule tested received a call. Report the one for CCCCCCCCCCCC(=O)O .
Data returned: -1

Data request: Each molecule tested received a call. Report the one for O=S(=O)(O)c1ccccc1 .
Data returned: -1

Data request: Each molecule tested received a call. Report the one for CCC(O)OC(O)CC (stereo not drawn) .
Data returned: -1

Data request: Each molecule tested received a call. Report the one for Cc1c(N=C=O)cccc1N=C=O .
Data returned: -1

Data request: Each molecule tested received a call. Report the one for C=CCc1ccc(OC)c(OC)c1 .
Data returned: -1

Data request: Each molecule tested received a call. Report the one for c1ccccc1 .
Data returned: -1

Data request: Each molecule tested received a call. Report the one for CCCCOCCO .
Data returned: -1

Data request: Each molecule tested received a call. Report the one for Cc1ccccc1C .
Data returned: -1

Data request: Each molecule tested received a call. Report the one for CC(C)=CCCC(C)CCO (stereo not drawn) .
Data returned: -1

Data request: Each molecule tested received a call. Report the one for Clc1cc(Cl)c(Cl)cc1Cl .
Data returned: -1

Data request: Each molecule tested received a call. Report the one for CC1=CC(C)(C)Nc2ccccc21 .
Data returned: -1

Data request: Each molecule tested received a call. Report the one for CCCCCCCCCCCCCC(=O)O .
Data returned: -1

Data request: Each molecule tested received a call. Report the one for C[C@H](CCC(=O)O)[C@H]1CC[C@H]2[C@@H]3CC[C@@H]4C[C@H](O)CC[C@]4(C)[C@H]3CC[C@]12C .
Data returned: -1

Data request: Each molecule tested received a call. Report the one for NC1=NC(S)C2N=CN=C2N1 (stereo not drawn) .
Data returned: 1

Data request: Each molecule tested received a call. Report the one for CN(C)CCCCCCN(C)C .
Data returned: -1

Data request: Each molecule tested received a call. Report the one for O=C1CCc2ccccc2O1 .
Data returned: -1

Data request: Each molecule tested received a call. Report the one for CCCCCCCCCCCCCCC1CO1 (stereo not drawn) .
Data returned: -1

Data request: Each molecule tested received a call. Report the one for O=NO .
Data returned: -1

Data request: Each molecule tested received a call. Report the one for Cc1cccc([N+](=O)[O-])c1C .
Data returned: -1

Data request: Each molecule tested received a call. Report the one for COC(=O)c1ccc(C)cc1 .
Data returned: -1

Data request: Each molecule tested received a call. Report the one for ClCCCl .
Data returned: -1

Data request: Each molecule tested received a call. Report the one for C=CCOC(=O)c1ccccc1C(=O)OCC=C .
Data returned: -1

Data request: Each molecule tested received a call. Report the one for COc1ccc2nc(N)sc2c1 .
Data returned: -1

Data request: Each molecule tested received a call. Report the one for C=C(C)C1CC=C(C)C(O)C1 (stereo not drawn) .
Data returned: -1

Data request: Each molecule tested received a call. Report the one for CN(C)C=O .
Data returned: -1

Data request: Each molecule tested received a call. Report the one for OCCNCCO .
Data returned: -1

----------
system: Guanidinoacetate N-methyltransferase (Homo sapiens)
experiment-notes: Confirmatory Screen for Target Class Profiling of Small Molecule Inhibitors of Methyltransferases (AID 1745852)
details: MTase-Glo luminescence, SAH detection, recombinant enzyme; series mostly up to 57.3 µM
Activity calls are given as the source filed them. The call rests on the fitted dose curve.
Field 'call' accepts 1 (active), 0 (inactive)

Data request: Each molecule tested received a call. Report the one for Cc1c(OCc2ccc(C(=O)O)o2)ccc2c(-c3ccccc3)cc(=O)oc12 .
Data returned: 1

Data request: Each molecule tested received a call. Report the one for Cc1cccc(-c2nnc3n(CCc4ccccc4)c(=O)c4ccccc4n23)c1 .
Data returned: 0

Data request: Each molecule tested received a call. Report the one for Cc1ccc(C(=O)O)c2c1N[C@H](c1cccc(Cl)c1)C1CC=CC21 (stereo partly specified) .
Data returned: 0

Data request: Each molecule tested received a call. Report the one for O=C(NCc1ccc(Cl)cc1)c1ccc2c(=O)[nH]c3c(C(=O)NC4CCCC4)sc(=S)n3c2c1 .
Data returned: 1

Data request: Each molecule tested received a call. Report the one for O=C(NCc1cccc(Cl)c1)c1sc(=S)n2c1[nH]c(=O)c1cc3c(cc12)OCO3 .
Data returned: 1

Data request: Each molecule tested received a call. Report the one for Cc1ccc(NC(=O)CSc2nnc3n(CC(C)C)c(=O)c4ccccc4n23)cc1 .
Data returned: 0

Data request: Each molecule tested received a call. Report the one for COc1ccc(-c2cc3nc4c(c(=O)n3[nH]2)CN(C(=O)CN(C)S(=O)(=O)c2cnc[nH]2)CC4)cc1 .
Data returned: 1

Data request: Each molecule tested received a call. Report the one for CC[C@H](C)NC(=O)c1sc(=S)n2c1[nH]c(=O)c1cc(Cl)ccc12 .
Data returned: 1

Data request: Each molecule tested received a call. Report the one for Cc1cc(C)c(CNC(=O)c2cc(-c3cnn(C)c3C)cc3c2OCCN3C)c(=O)[nH]1 .
Data returned: 1

Data request: Each molecule tested received a call. Report the one for Cc1ccc(CN2C(=O)c3ccc(-c4ccco4)n3CC2(C)C(=O)NCc2ccc(Cl)cc2)cc1 (stereo unspecified) .
Data returned: 0

Data request: Each molecule tested received a call. Report the one for O=C(NCCc1ccc(Cl)cc1)c1ccc2c(=O)[nH]c3c(C(=O)NC4CCCC4)sc(=S)n3c2c1 .
Data returned: 1

Data request: Each molecule tested received a call. Report the one for COc1ccc(OC)c2c1cc1n2CC(C)(C(=O)NC2CCCCCC2)N(Cc2ccccn2)C1=O (stereo unspecified) .
Data returned: 0

Data request: Each molecule tested received a call. Report the one for CCCCCNC(=O)c1sc(=S)n2c1[nH]c(=O)c1ccc(C(=O)OC)cc12 .
Data returned: 1

Data request: Each molecule tested received a call. Report the one for COc1ccc(-c2nc3ccccc3[nH]2)cc1 .
Data returned: 1

Data request: Each molecule tested received a call. Report the one for CC(=O)Nc1ccc2c(c1)C1C=CCC1C(c1ccccc1F)N2 (stereo unspecified) .
Data returned: 1

Data request: Each molecule tested received a call. Report the one for COc1ccc(CCNC(=O)c2ccc3c(=O)nc4c(-c5ccccc5)n[nH]n4c3c2)cc1OC .
Data returned: 1
